assay: Human HepG2 cell viability assay in 384 well format; format: toxicity, cell-based; design: dose 125 nL, time 70.5 hour; concentration not given beside the values; details: HepG2 cells, read-out: Inhibition
measurement_kind: cytotoxicity at 70.5 h
Your reply should be a number followed by the unit it is expressed in.

# example entries with known answers
{"molecule": "COc1ccc(COCC(=O)N2CCCC(n3cncn3)C2)cc1 (stereo not given)", "cytotoxicity at 70.5 h": "19.2%"}
{"molecule": "COc1ncccc1C(=O)N1CC(c2nc(-c3ccco3)no2)C1", "cytotoxicity at 70.5 h": "15.9%"}
{"molecule": "Cc1ccc2c(c1)c(C)cc(=O)n2CC(=O)O", "cytotoxicity at 70.5 h": "-2.86%"}
{"molecule": "Cc1nc2ccc(C(=O)N3CCN(CCO)[C@@H]4CS(=O)(=O)C[C@@H]43)cc2o1", "cytotoxicity at 70.5 h": "-5.42%"}
{"molecule": "Cn1ccc2cc(C(=O)N3CCOCC3)ccc21", "cytotoxicity at 70.5 h": "-9.22%"}
{"molecule": "Cc1nn(C)c(Cl)c1C1CCCN1C(=O)CCNc1ncccn1 (stereo not given)", "cytotoxicity at 70.5 h": "-2.34%"}

Take each entry in turn and give its cytotoxicity at 70.5 h.
1. CC(C)C1CN(S(=O)(=O)C2CC2)CCCN1Cc1ccc(F)cc1 (stereo not given)
2. Cn1ncc(N2CCC(CNC3Cc4ccccc4C3)C2)cc1=O (stereo not given)
3. CCN1CC(COc2ccc(OC)cc2)Oc2ccncc2S1(=O)=O (stereo not given)
4. O=C(Cc1ccc(Cl)cc1)N1CCC(O)(C(F)(F)F)C1 (stereo not given)

1. -3.51%
2. 3.7%
3. -0.442%
4. -2.11%

Take each entry in turn and give its cytotoxicity at 70.5 h.
1. CNC(=O)[C@H]1CO[C@H]2CCN(c3ncc(F)cn3)C[C@H]2C1
2. Cc1ccc(CN2CCN(C(=O)CCc3nc(Cl)n[nH]3)CC2=O)cc1
3. CCc1nnc(CNC(=O)CCC2CCCN(C)C2)s1 (stereo not given)

-8.64%
-14.2%
-0.522%
